# TARGET: human KDR protein in HEK-293 cells (Homo sapiens (Human), UniProt P35968)
# Sequence (P35968 20-1356): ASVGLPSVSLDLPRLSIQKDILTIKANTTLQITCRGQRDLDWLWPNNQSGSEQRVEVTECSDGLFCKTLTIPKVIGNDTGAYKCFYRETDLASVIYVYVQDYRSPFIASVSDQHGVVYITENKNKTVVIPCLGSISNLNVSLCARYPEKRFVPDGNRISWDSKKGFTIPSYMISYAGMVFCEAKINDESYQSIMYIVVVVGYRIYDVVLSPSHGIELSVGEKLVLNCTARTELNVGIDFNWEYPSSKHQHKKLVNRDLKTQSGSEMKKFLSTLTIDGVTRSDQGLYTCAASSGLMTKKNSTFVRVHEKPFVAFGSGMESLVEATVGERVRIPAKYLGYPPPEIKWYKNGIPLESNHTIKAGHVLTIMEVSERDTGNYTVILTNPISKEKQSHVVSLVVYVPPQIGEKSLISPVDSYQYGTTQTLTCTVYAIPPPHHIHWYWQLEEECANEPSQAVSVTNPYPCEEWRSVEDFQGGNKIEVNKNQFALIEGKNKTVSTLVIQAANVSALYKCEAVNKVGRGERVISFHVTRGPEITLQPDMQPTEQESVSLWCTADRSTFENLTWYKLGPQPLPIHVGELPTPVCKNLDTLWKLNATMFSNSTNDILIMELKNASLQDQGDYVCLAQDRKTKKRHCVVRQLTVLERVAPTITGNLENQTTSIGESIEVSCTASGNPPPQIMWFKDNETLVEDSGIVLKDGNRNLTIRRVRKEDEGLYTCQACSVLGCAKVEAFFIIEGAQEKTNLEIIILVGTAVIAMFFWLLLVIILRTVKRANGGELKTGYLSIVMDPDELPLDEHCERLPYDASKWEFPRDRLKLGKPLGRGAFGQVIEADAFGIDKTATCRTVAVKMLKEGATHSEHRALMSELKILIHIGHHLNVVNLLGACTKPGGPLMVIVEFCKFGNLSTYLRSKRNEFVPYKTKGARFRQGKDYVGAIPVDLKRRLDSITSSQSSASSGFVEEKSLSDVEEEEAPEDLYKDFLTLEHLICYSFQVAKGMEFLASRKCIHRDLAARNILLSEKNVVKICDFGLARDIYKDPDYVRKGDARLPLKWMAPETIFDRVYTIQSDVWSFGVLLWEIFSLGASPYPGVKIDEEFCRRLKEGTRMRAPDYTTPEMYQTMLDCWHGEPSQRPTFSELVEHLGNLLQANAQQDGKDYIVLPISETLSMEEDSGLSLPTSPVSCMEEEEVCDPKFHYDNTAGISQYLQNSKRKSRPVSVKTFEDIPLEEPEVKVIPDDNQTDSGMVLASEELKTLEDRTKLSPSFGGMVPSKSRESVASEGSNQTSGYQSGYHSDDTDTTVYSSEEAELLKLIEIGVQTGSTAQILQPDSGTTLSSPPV
# ASSAY REMARKS: KDR Cell Assay (phospho-KDR in HEK-293 cells expressing inducible KDR)
# Format: cell-based
# MEASUREMENT CONDITIONS: pKDR Cell HEK 10% FBS IC50, HEK-293 cells expressing inducible KDR, VEGF stimulated, 10% FBS
pIC50: −log10 of the molar value. Structures can show the parent of a compound that is named as a salt.
Kindly return criterion met if reported pIC50 is no lower than 6; return criterion not met if it is lower.

COMPOUND: Cn1cc(-c2cc(-c3ccc(N4CCCC4)nc3)c3c(Cl)cnn3c2)cn1 [Example 339]
CATEGORY LABEL: criterion not met

COMPOUND: Cn1cc(-c2cc(-c3ccc(N4CCN(S(C)(=O)=O)CC4)nc3)c3c(C#N)cnn3c2)cn1 [Example 88]
CATEGORY LABEL: criterion met

COMPOUND: Cn1cc(-c2cc(-c3ccc(N4CCN(C(=O)C(C)(C)c5ccccc5)CC4)nc3)c3c(C#N)cnn3c2)cn1 [Example 26]
CATEGORY LABEL: criterion met

COMPOUND: Cn1cc(-c2cc(-c3ccc(N4CCN(C(=O)C(C)(F)F)CC4)nc3)c3c(C#N)cnn3c2)cn1 [Example 59]
CATEGORY LABEL: criterion met

COMPOUND: Cn1cc(-c2cc(-c3ccc(N4[C@@H]5CC[C@H]4C[C@@H](N)C5)nc3)c3c(C#N)cnn3c2)cn1 [Example 195, dihydrochloride]
CATEGORY LABEL: criterion met

COMPOUND: Cn1cc(-c2cc(-c3ccc(N4CC[C@H](C(=O)NCCC(F)(F)F)C4)nc3)c3c(C#N)cnn3c2)cn1 [Example 262]
CATEGORY LABEL: criterion met

COMPOUND: Cn1cc(-c2cc(-c3ccc(N4CCN(C(=O)[C@H](O)c5cccc(Cl)c5)CC4)nc3)c3ccnn3c2)cn1 [Example 322]
CATEGORY LABEL: criterion not met

COMPOUND: Cn1cc(C(=O)N2CCN(c3ccc(-c4cc(-c5cnn(C)c5)cn5ncc(C#N)c45)cn3)CC2)cn1 [Example 35, trifluoroacetate]
CATEGORY LABEL: criterion met

Task: Hi, just wondering whether CO[C@H]1C[C@@H](NC(=O)C2CCN(c3ccc(-c4cc(-c5cnn(C)c5)cn5ncc(C#N)c45)cn3)CC2)C1 [Example 241] shows pIC50 of 6 or higher.
Result: criterion not met

Task: Further, for CCNC(=O)N1CCN(c2ccc(-c3cc(-c4cnn(C)c4)cn4ncc(C#N)c34)cn2)CC1 [Example 134] ?
Result: criterion met

---

Would you kindly list pIC50 for each of these compounds?
# TARGET: human KDR protein in HEK-293 cells (Homo sapiens (Human))
# ASSAY REMARKS: KDR Cell Assay (phospho-KDR in HEK-293 cells expressing inducible KDR)
# Type: cell-based
# MEASUREMENT CONDITIONS: pKDR Cell HEK 10% FBS IC50, HEK-293 cells expressing inducible KDR, VEGF stimulated, 10% FBS
Answers are plain numbers, as −log10 of the molar value.

Some entries whose results are on file:
COMPOUND: COCC1(C(=O)N2CCN(c3ccc(-c4cc(-c5cnn(C)c5)cn5ncc(C#N)c45)cn3)CC2)CCC1 [Example 354]
pIC50: 5.89
//
COMPOUND: CC(C)C[C@@H](O)C(=O)N1CCN(c2ccc(-c3cc(-c4cnn(C)c4)cn4ncc(C#N)c34)cn2)CC1 [Example 53]
pIC50: 6.52
//
COMPOUND: CN(C)C(=O)CN1CCN(c2ccc(-c3cc(-c4cnn(C)c4)cn4ncc(C#N)c34)cn2)CC1 [Example 143, 2,2,2-trifluoroacetate]
pIC50: 5.75
//
COMPOUND: CCC1(C(=O)NC(C)C)CCN(c2ccc(-c3cc(-c4cnn(C)c4)cn4ncc(C#N)c34)cn2)CC1 [Example 256]
pIC50: 6.13
//
COMPOUND: Cn1cc(-c2cc(-c3ccc(N4CCN(C(=O)C5(c6ccc(Cl)cc6)CC5)CC4)nc3)c3c(C#N)cnn3c2)cn1 [Example 341]
pIC50: 6.62
//
COMPOUND: COCC(=O)N1CCN(c2ccc(-c3cc(-c4cnn(C)c4)cn4ncc(Cl)c34)cn2)CC1 [Example 329]
pIC50: 6.42
//
COMPOUND: CO[C@@H](C(=O)N1CCN(c2ccc(-c3cc(-c4cnn(C)c4)cn4ncc(C#N)c34)cn2)CC1)C(C)C [Example 86]
pIC50: 6.37
//
COMPOUND: Cn1cc(-c2cc(-c3ccc(N4CCN(C(=O)N5CCC[C@H]5C(F)(F)F)CC4)nc3)c3c(C#N)cnn3c2)cn1 [Example 113]
pIC50: 6.18

Report pIC50 for each item below.
1. Cn1cc(-c2cc(-c3ccc(N4CCN(C(=O)N[C@H]5CCOC5)CC4)nc3)c3c(C#N)cnn3c2)cn1 [Example 105]
2. CC(C)CC(=O)N1CCN(c2ccc(-c3cc(-c4cnn(C(F)F)c4)cn4ncc(C#N)c34)cn2)CC1 [Example 267]
3. Cn1cc(-c2cc(-c3ccc(N4CCN(C(=O)C[C@H](O)c5ccccc5)CC4)nc3)c3c(C#N)cnn3c2)cn1 [Example 8]
4. COC[C@@H]1CCCN1C(=O)N1CCN(c2ccc(-c3cc(-c4cnn(C)c4)cn4ncc(C#N)c34)cn2)CC1 [Example 111]

Result:
5.94
5.56
7.00
5.71

Report pIC50 for each item below.
1. Cn1cc(-c2cc(-c3ccc(N4CCN(C(=O)C5CC5)CC4)nc3)c3c(C#N)cnn3c2)cn1 [Example 68]
2. CO[C@H]1CCN(C(=O)N2CCN(c3ccc(-c4cc(-c5cnn(C)c5)cn5ncc(C#N)c45)cn3)CC2)C1 [Example 97]

Result:
[6.10, 6.12]
